Target: HLA-B*15:01
Assay: IEDB peptide-MHC binding, purified MHC/competitive/fluorescence; filed as Kd, often an IC50 or EC50 that approximates it; bounds were set here for any values at or beyond the usual limits of such assays
Conditions: source organism: Mycobacterium tuberculosis H37Rv
observation type: pKd
For clarity, pKd is expressed as the negative log10 of concentration in mol/L.

Lookup: I have this sequence here, `ELVDTTEMY` , and I need its recorded pKd.
Found: 6.49

---

Target: HLA-B*08:01
Experiment: IEDB peptide-MHC binding, purified MHC/competitive/fluorescence; bounds were set here for any values at or beyond the usual limits of such assays
Details: source organism: Variola virus
observation type: IC50

Lookup: Could you tell me which IC50 is on file for `IAVARKHHT` ?
Found: ≥ 91.6 µM

---

Target: HLA-B*58:01
Test: IEDB peptide-MHC binding, purified MHC/direct/fluorescence; filed as Kd, often an IC50 or EC50 that approximates it; bounds were set here for any values at or beyond the usual limits of such assays
Details: source organism: Brucella melitensis
observation type: Kd (µM)
A number alone suffices; assume µM.

Lookup: Reported Kd, sequence `KRASGDPYF` : ____
Found: 5.93

---

Target: HLA-B*15:09
Experiment: IEDB peptide-MHC binding, purified MHC/competitive/fluorescence; filed as Kd, often an IC50 or EC50 that approximates it; bounds were set here for any values at or beyond the usual limits of such assays
Conditions: source organism: Brucella canis ATCC 23365
observation type: pKd
By convention, pKd is the negative base-10 log of a molar concentration.

Lookup: Reported pKd for `IEVKFHPIL` : what is it?
Found: 7.06

---

Biological target: HLA-B*44:03
Assay: IEDB peptide-MHC binding, purified MHC/competitive/radioactivity; filed as Kd, often an IC50 or EC50 that approximates it; bounds were set here for any values at or beyond the usual limits of such assays
Conditions: source organism: Dengue virus 2 Peru/IQT2913/1996
observation type: pKd
# log scale: pKd equals minus log10 of the concentration in mol/L

Lookup: Name the reported pKd value associated with the sequence `TELRYSWKTW`
Found: 7.48

---

Biological target: HLA-A*02:19
Test: IEDB peptide-MHC binding, purified MHC/direct/fluorescence; filed as Kd, often an IC50 or EC50 that approximates it; bounds were set here for any values at or beyond the usual limits of such assays
Conditions: source organism: Bacillus anthracis str. Sterne
pKd: −log10 of the molar value.
observation type: pKd

Lookup: May I ask what pKd has been recorded for `KKNHWFILK` ?
Found: ≤ 4.70

---

Target: HLA-B*40:01
Test: IEDB peptide-MHC binding, purified MHC/competitive/fluorescence; filed as Kd, often an IC50 or EC50 that approximates it; bounds were set here for any values at or beyond the usual limits of such assays
Conditions: source organism: Salmonella enterica subsp. enterica serovar Typhi
observation type: pKd
Worth noting: pKd values are minus log10 of concentrations stated in mol/L.

Lookup: Returns the measured pKd for the input sequence. Input: `IEIARTLTL`
Found: 7.97

---

Target: HLA-A*24:03
Test: IEDB peptide-MHC binding, purified MHC/competitive/fluorescence; filed as Kd, often an IC50 or EC50 that approximates it; bounds were set here for any values at or beyond the usual limits of such assays
Settings: source organism: Burkholderia vietnamiensis G4
observation type: Kd

Lookup: Quick one: Kd for `PLFKRGWRL` ?
Found: ≥ 20 µM

---

Target: HLA-B*15:17
Assay: IEDB peptide-MHC binding, purified MHC/direct/fluorescence; filed as Kd, often an IC50 or EC50 that approximates it; bounds were set here for any values at or beyond the usual limits of such assays
Conditions: source organism: Campylobacter jejuni RM1221
observation type: pKd
In simple prose, pKd is minus the logarithm base ten of a concentration in moles per litre.

Lookup: So what does the record say about pKd for `HSNSEYLMF` ?
Found: 8.96

---

Target: HLA-B*45:06
Assay: IEDB peptide-MHC binding, purified MHC/competitive/fluorescence; filed as Kd, often an IC50 or EC50 that approximates it; bounds were set here for any values at or beyond the usual limits of such assays
Settings: source organism: Vibrio vulnificus YJ016
pKd: −log10 of the molar value.
observation type: pKd

Lookup: Which pKd value is on record for `KMFNRASYF` ?
Found: ≤ 5.30

---

Molecular target: HLA-A*02:19
Test: IEDB peptide-MHC binding, purified MHC/direct/fluorescence; filed as Kd, often an IC50 or EC50 that approximates it; bounds were set here for any values at or beyond the usual limits of such assays
Conditions: source organism: Vibrio vulnificus YJ016
pKd: −log10 of the molar value.
observation type: pKd

Lookup: Which pKd is listed for `MKYVWPPIM` ?
Found: ≤ 4.70

---

Biological target: HLA-B*40:01
Test: IEDB peptide-MHC binding, purified MHC/direct/fluorescence; filed as Kd, often an IC50 or EC50 that approximates it; bounds were set here for any values at or beyond the usual limits of such assays
Details: source organism: Camelpox virus CMS
observation type: Kd

Lookup: State the recorded Kd for this entry: `VIARTHTAL`
Found: ≥ 20 µM

---

Molecular target: HLA-A*02:01
Test: IEDB peptide-MHC binding, purified MHC/direct/fluorescence; filed as Kd, often an IC50 or EC50 that approximates it; bounds were set here for any values at or beyond the usual limits of such assays
Settings: source organism: Pseudomonas fluorescens
observation type: Kd

Lookup: Entry `FVSVYFSDY` has what Kd?
Found: ≥ 20 µM

---

Target: HLA-B*15:42
Assay: IEDB peptide-MHC binding, purified MHC/competitive/fluorescence; filed as Kd, often an IC50 or EC50 that approximates it; bounds were set here for any values at or beyond the usual limits of such assays
Conditions: source organism: Vibrio vulnificus YJ016
observation type: Kd

Lookup: Any idea what Kd was measured for `KMFNRASYF` ?
Found: ≥ 5 µM

---

Biological target: HLA-B*44:02
Assay: IEDB peptide-MHC binding, purified MHC/direct/fluorescence; filed as Kd, often an IC50 or EC50 that approximates it; bounds were set here for any values at or beyond the usual limits of such assays
Conditions: source organism: Rickettsia sibirica
pKd: −log10 of the molar value.
observation type: pKd

Lookup: Please tell me: pKd of `ASDRISGIL` , system HLA-B*44:02?
Found: ≤ 4.70

---

Biological target: HLA-B*07:02
Assay: IEDB peptide-MHC binding, purified MHC/competitive/fluorescence; bounds were set here for any values at or beyond the usual limits of such assays
Settings: source organism: Vaccinia virus
observation type: IC50

Lookup: What reported IC50 corresponds to `KPPKFRAFR` on HLA-B*07:02?
Found: ≥ 169 µM

---

Target: HLA-B*37:01
Assay: IEDB peptide-MHC binding, purified MHC/competitive/fluorescence; bounds were set here for any values at or beyond the usual limits of such assays
Conditions: source organism: Homo sapiens
pIC50: −log10 of the molar value.
observation type: pIC50

Lookup: Fill blank: measured pIC50 of the sequence `MVRVLTVIKEY` is ____.
Found: ≤ 4.70

---

Target: HLA-B*18:01
Test: IEDB peptide-MHC binding, purified MHC/competitive/fluorescence; filed as Kd, often an IC50 or EC50 that approximates it; bounds were set here for any values at or beyond the usual limits of such assays
Conditions: source organism: Cryptosporidium parvum Iowa II
pKd: −log10 of the molar value.
observation type: pKd

# record sequence, pKd
records = [
    ("ERTDLFFPV", "≤ 4.70"),
]

Please turn your attention to the following entry.
Lookup: Entry `KLYLRPWWH` , system HLA-B*18:01: what pKd was measured?
Found: ≤ 4.70

---

Target: HLA-B*51:01
Assay: IEDB peptide-MHC binding, purified MHC/competitive/radioactivity; filed as Kd, often an IC50 or EC50 that approximates it; bounds were set here for any values at or beyond the usual limits of such assays
Conditions: source organism: Dengue virus 1 Brazil/97-11/1997
observation type: pKd
pKd here: minus log base 10 of the concentration, concentration in moles per litre.

# record sequence, target or system, pKd
measured = [
    ("IAFLRFLAI", "HLA-B*51:01", 8.02),
]

Lookup: State the recorded pKd for this entry: `WAYHGSYEV`
Found: 7.95

---

Target: HLA-A*02:01
Assay: IEDB peptide-MHC binding, purified MHC/competitive/fluorescence; filed as Kd, often an IC50 or EC50 that approximates it; bounds were set here for any values at or beyond the usual limits of such assays
Conditions: source organism: Zaire ebolavirus
pKd: −log10 of the molar value.
observation type: pKd

# record sequence, pKd
records = [
    ("AFHQLVQVI", "≤ 4.70"),
]

Kindly consider the entry below.
Lookup: Query (sequence): `TAAIMLASY` ; field requested: pKd
Found: ≤ 4.70

---

Target: HLA-B*51:01
Experiment: IEDB peptide-MHC binding, purified MHC/competitive/fluorescence; filed as Kd, often an IC50 or EC50 that approximates it; bounds were set here for any values at or beyond the usual limits of such assays
Conditions: source organism: Listeria monocytogenes J0161
observation type: Kd

Lookup: Query (sequence): `YNAKRIETV` ; field requested: Kd
Found: ≥ 20 µM
